test system: 855422-203-R-J1-PDC complex spheroid viability; experiment: Anticancer human tumor 855422-203-R-J1-PDC patient-derived bladder carcinoma cell line growth inhibition; settings: second compound 1 µM; first compound 0.0316 µM; stronger effect = lower value
# strict inequality: viability, T/C < 80% yields Satisfied, everything else yields Not satisfied

CC1(C)CCC(CN2CCN(c3ccc(C(=O)NS(=O)(=O)c4ccc(NCC5CCOCC5)c([N+](=O)[O-])c4)c(Oc4cnc5[nH]ccc5c4)c3)CC2)=C(c2ccc(Cl)cc2)C1 + NC1CCC(NC2CC2c2ccccc2)CC1; Not satisfied

## Task Given the entry COc1ccc([C@@H](O)c2cc(-c3ncnc4cc(N5CCOCC5)ccc34)c(F)cc2Cl)nn1 + NC1CC1c1ccc(-c2cccc(O)c2)cc1 , would its reported viability, T/C be below 80%?
## Result Not satisfied

## Task Given the entry CC(C)CC(NC(=O)C(Cc1ccccc1)NC(=O)c1cnccn1)B(O)O (stereo not given) + NC1CCC(NC2CC2c2ccccc2)CC1 , would its reported viability, T/C be below 80%?
## Result Satisfied

## Task Given the entry O=C(c1cc(Cc2n[nH]c(=O)c3ccccc23)ccc1F)N1CCN(C(=O)C2CC2)CC1 + NC1CC1c1ccc(-c2cccc(O)c2)cc1 , would its reported viability, T/C be below 80%?
## Result Not satisfied

## Task Given the entry CC1COCCN1c1cc(C2(S(C)(=N)=O)CC2)nc(-c2ccnc3[nH]ccc23)n1 (stereo not given) + NC1CCC(NC2CC2c2ccccc2)CC1 , would its reported viability, T/C be below 80%?
## Result Not satisfied

====

tested on: 855422-203-R-J1-PDC complex spheroid viability; test: Anticancer human tumor 855422-203-R-J1-PDC cell line growth inhibition; settings: second compound 10 µM; first compound 0.316 µM; stronger effect = lower value;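 also: drug exposure lasted 7 days starting on day 3 after seeding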;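 as to viability, T/C: luminescence viability as percent of DMSO vehicle wells = 100%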
# strict inequality: viability, T/C < 90% yields Met, everything else yields Not met

## Task Given the entry COc1cc(Nc2ncc3c(n2)-c2ccc(Cl)cc2C(c2c(F)cccc2OC)=NC3)ccc1C(=O)O + NC1CCC(NC2CC2c2ccccc2)CC1 , would its reported viability, T/C be below 90%?
## Result Met

====

Recorded viability, T/C, one value per entry.
test system: 855422-203-R-J1-PDC complex spheroid viability; assay: Anticancer human tumor 855422-203-R-J1-PDC cell line growth inhibition; details: second compound 10 µM; first compound 0.316 µM; stronger effect = lower value;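 also: drug exposure lasted 7 days starting on day 3 after seeding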;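 as to viability, T/C: luminescence viability as percent of DMSO vehicle wells = 100%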
Numeric answer only, unit % assumed.

CC1COCCN1c1cc(C2(S(C)(=N)=O)CC2)nc(-c2ccnc3[nH]ccc23)n1 (stereo not drawn) + NC1CC1c1ccc(-c2cccc(O)c2)cc1; 101
COc1ccc([C@@H](O)c2cc(-c3ncnc4cc(N5CCOCC5)ccc34)c(F)cc2Cl)nn1 + NC1CCC(NC2CC2c2ccccc2)CC1; 71.7

Okay, next one:
## Task Fill in: viability, T/C of COc1cc(Nc2ncc3c(n2)-c2ccc(Cl)cc2C(c2c(F)cccc2OC)=NC3)ccc1C(=O)O + NC1CC1c1ccc(-c2cccc(O)c2)cc1 is ___
## Result 44.2

====

tested on: 855422-203-R-J1-PDC complex spheroid viability; experiment: Anticancer human tumor 855422-203-R-J1-PDC cell line growth inhibition; settings: second compound 10 µM; first compound 0.0949 µM; stronger effect = lower value;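 also: drug exposure lasted 7 days starting on day 3 after seeding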;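 as to viability, T/C: luminescence viability as percent of DMSO vehicle wells = 100%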
# strict inequality: viability, T/C < 80% yields Fulfilled, everything else yields Not fulfilled

Nc1ccccc1NC(=O)c1ccc(CNC(=O)OCc2cccnc2)cc1 + NC1CCC(NC2CC2c2ccccc2)CC1; Not fulfilled

## Task Given the entry NS(=O)(=O)OCC1CC(n2ccc3c(NC4CCc5ccccc54)ncnc32)CC1O (centres undefined) + NC1CCC(NC2CC2c2ccccc2)CC1 , would its reported viability, T/C be below 80%?
## Result Fulfilled

## Task Given the entry NS(=O)(=O)OCC1CC(n2ccc3c(NC4CCc5ccccc54)ncnc32)CC1O (centres undefined) + NC1CC1c1ccc(-c2cccc(O)c2)cc1 , would its reported viability, T/C be below 80%?
## Result Not fulfilled

## Task Given the entry COc1cc(C2c3cc4c(cc3C(OC3OC5COC(C)OC5C(O)C3O)C3COC(=O)C23)OCO4)cc(OC)c1O (centres undefined) + NC1CCC(NC2CC2c2ccccc2)CC1 , would its reported viability, T/C be below 80%?
## Result Fulfilled

## Task Given the entry CCN(c1cc(-c2ccc(CN3CCOCC3)cc2)cc(C(=O)NCc2c(C)cc(C)[nH]c2=O)c1C)C1CCOCC1 + NC1CC1c1ccc(-c2cccc(O)c2)cc1 , would its reported viability, T/C be below 80%?
## Result Not fulfilled

## Task Given the entry CCc1c2c(nc3ccc(O)cc13)-c1cc3c(c(=O)n1C2)COC(=O)[C@]3(O)CC + NC1CC1c1ccc(-c2cccc(O)c2)cc1 , would its reported viability, T/C be below 80%?
## Result Fulfilled

## Task Given the entry Nc1ccccc1NC(=O)c1ccc(CNC(=O)OCc2cccnc2)cc1 + NC1CC1c1ccc(-c2cccc(O)c2)cc1 , would its reported viability, T/C be below 80%?
## Result Not fulfilled

====

Recorded IC50, one value per entry.
Test system: 855422-203-R-J1-PDC complex spheroid viability
Experiment: Anticancer human tumor 855422-203-R-J1-PDC cell line growth inhibition;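 also: drug exposure lasted 7 days starting on day 3 after seeding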
Settings: curve of first compound; second compound 10 µM
Source text: Multicellular complex tumor spheroid response to LSD1 Inhibitor Iadademstat in combination with a variety of drugs and investigational agents in selected tumor cell lines The current study was undertaken to assess response to LSD1 inhibitors in combination with standard-of-care drugs and investigational agents in solid tumor complex spheroid models as well as in the K-562 leukemia. […] Compounds. […] If the clinical Cmax for an agent had not been determined, the highest concentration tested was 10 microM. […]
Numeric answer only, unit nM assumed.

CC(C)CC(NC(=O)CNC(=O)c1cc(Cl)ccc1Cl)B1OC(=O)CC(CC(=O)O)(C(=O)O)O1 (centres undefined) + NC1CCC(NC2CC2c2ccccc2)CC1; 1.52
O=C(C=Cn1cnc(-c2cc(C(F)(F)F)cc(C(F)(F)F)c2)n1)NNc1cnccn1 + NC1CC1c1ccc(-c2cccc(O)c2)cc1; 23.2

Okay, next one:
## Task Fill in: IC50 of Nc1ccccc1NC(=O)c1ccc(CNC(=O)OCc2cccnc2)cc1 + NC1CCC(NC2CC2c2ccccc2)CC1 is ___
## Result 1060

====

System: 855422-203-R-J1-PDC complex spheroid viability
Assay: Anticancer human tumor 855422-203-R-J1-PDC cell line growth inhibition;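 also: drug exposure lasted 7 days starting on day 3 after seeding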
Details: curve of first compound; second compound 10 µM
Source text: Multicellular complex tumor spheroid response to LSD1 Inhibitor Iadademstat in combination with a variety of drugs and investigational agents in selected tumor cell lines The current study was undertaken to assess response to LSD1 inhibitors in combination with standard-of-care drugs and investigational agents in solid tumor complex spheroid models as well as in the K-562 leukemia. […] Compounds. […] If the clinical Cmax for an agent had not been determined, the highest concentration tested was 10 microM. […]
recorded_endpoint: IC50

## Task Fill in: IC50 of Nc1ncn(C2CC(O)C(CO)O2)c(=O)n1 (configuration not stated) + NC1CCC(NC2CC2c2ccccc2)CC1 is ___
## Result > 1 µM

## Task Fill in: IC50 of CCc1c2c(nc3ccc(O)cc13)-c1cc3c(c(=O)n1C2)COC(=O)[C@]3(O)CC + NC1CC1c1ccc(-c2cccc(O)c2)cc1 is ___
## Result < 0.000949 µM

## Task Fill in: IC50 of CC[C@@]1(O)C(=O)OCc2c1cc1n(c2=O)Cc2cc3c(CN(C)C)c(O)ccc3nc2-1 + NC1CC1c1ccc(-c2cccc(O)c2)cc1 is ___
## Result 0.00635 µM

## Task Fill in: IC50 of COc1cc(Nc2ncc3c(n2)-c2ccc(Cl)cc2C(c2c(F)cccc2OC)=NC3)ccc1C(=O)O + NC1CCC(NC2CC2c2ccccc2)CC1 is ___
## Result > 1 µM

## Task Fill in: IC50 of Nc1ccn(C2OC(CO)C(O)C2(F)F)c(=O)n1 (configuration not stated) + NC1CCC(NC2CC2c2ccccc2)CC1 is ___
## Result 0.00848 µM

## Task Fill in: IC50 of NS(=O)(=O)OCC1CC(n2ccc3c(NC4CCc5ccccc54)ncnc32)CC1O (configuration not stated) + NC1CC1c1ccc(-c2cccc(O)c2)cc1 is ___
## Result 0.532 µM

## Task Fill in: IC50 of COc1cc(C2c3cc4c(cc3C(OC3OC5COC(C)OC5C(O)C3O)C3COC(=O)C23)OCO4)cc(OC)c1O (configuration not stated) + NC1CC1c1ccc(-c2cccc(O)c2)cc1 is ___
## Result 0.0921 µM

====

tested on: 855422-203-R-J1-PDC complex spheroid viability; assay: Anticancer human tumor 855422-203-R-J1-PDC cell line growth inhibition; conditions: curve of first compound; second compound 10 µM;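 also: drug exposure lasted 7 days starting on day 3 after seeding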
recorded_endpoint: pIC50
When answering, recall that pIC50 equals minus log10 of the concentration in mol/L, and write that number alone.

CC1COCCN1c1cc(C2(S(C)(=N)=O)CC2)nc(-c2ccnc3[nH]ccc23)n1 (stereo not given) + NC1CC1c1ccc(-c2cccc(O)c2)cc1; 5.68
CC(C)CC(NC(=O)CNC(=O)c1cc(Cl)ccc1Cl)B1OC(=O)CC(CC(=O)O)(C(=O)O)O1 (stereo not given) + NC1CC1c1ccc(-c2cccc(O)c2)cc1; 8.81
O=C(C=Cn1cnc(-c2cc(C(F)(F)F)cc(C(F)(F)F)c2)n1)NNc1cnccn1 + NC1CCC(NC2CC2c2ccccc2)CC1; 7.35
COc1ccc([C@@H](O)c2cc(-c3ncnc4cc(N5CCOCC5)ccc34)c(F)cc2Cl)nn1 + NC1CC1c1ccc(-c2cccc(O)c2)cc1; 5.56
Nc1ccccc1NC(=O)c1ccc(CNC(=O)OCc2cccnc2)cc1 + NC1CC1c1ccc(-c2cccc(O)c2)cc1; 5.99
COc1cc(Nc2ncc3c(n2)-c2ccc(Cl)cc2C(c2c(F)cccc2OC)=NC3)ccc1C(=O)O + NC1CC1c1ccc(-c2cccc(O)c2)cc1; 6.87
CC1COCCN1c1cc(-c2ccnn2C)c2ccnc(-c3ccn[nH]3)c2n1 (stereo not given) + NC1CCC(NC2CC2c2ccccc2)CC1; 7.06
O=C(C=Cc1cccc(S(=O)(=O)Nc2ccccc2)c1)NO + NC1CCC(NC2CC2c2ccccc2)CC1; 6.45
Nc1ccn(C2OC(CO)C(O)C2(F)F)c(=O)n1 (stereo not given) + NC1CC1c1ccc(-c2cccc(O)c2)cc1; 8.52
O=C(C=Cc1cccc(S(=O)(=O)Nc2ccccc2)c1)NO + NC1CC1c1ccc(-c2cccc(O)c2)cc1; 6.47

Okay, next one:
## Task Fill in: pIC50 of CC(C)CC(NC(=O)C(Cc1ccccc1)NC(=O)c1cnccn1)B(O)O (stereo not given) + NC1CCC(NC2CC2c2ccccc2)CC1 is ___
## Result 9.33

FYI, the data here is from PubChem BioAssay AID1918943.
